tested on: HBEGF locus; type: cell-based, human; conditions: high-throughput screen of dXR repression of the HBEGF gene; change in abundance of each domain in the library before and after diphtheria toxin selection
Log2 (fold change) reference
property-label: Log2 (fold change)

molecule: DOMAIN_24125 (protein, listed as Saimiri boliviensis) MAFEDVAVYFSQEEWGLLDTAQRALYRRVMLDNFALVASLGLSTTRPRVVIQLERGEEPWVPSGTDMTMSRNAHRRRNPGS
property-label: Log2 (fold change)
observed-result: 3.9692
--
molecule: DOMAIN_731 (protein, listed as Pan paniscus) MAGEAEAQLDPSLQGLVMFEDVTVYFSREEWGLLNVTQKGLYRDVMLENFALVSSLGLAPSRSPVFTQLEDDEQSWVPSWV
property-label: Log2 (fold change)
observed-result: 2.1318
--
molecule: DOMAIN_7353 (protein, Microcaecilia unicolor) AQMQVTFEDIAVFFCHEEWKYLDDGQKELYKEVMKENYETLISLGFLCEKPSLISKIEREEDPCVRDQQDFRERRRRLKSF
property-label: Log2 (fold change)
observed-result: 2.6649
--
molecule: DOMAIN_938 (protein, listed as Pan paniscus) MPANEDAPQPGEHGSACEVSVSFEDVTVDFSREEWQQLDSTQRRLYQDVMLENYSHLLSVGFEVPKPEVIFKLEQGEGPWT
property-label: Log2 (fold change)
observed-result: 2.2926
--
molecule: DOMAIN_5005 (protein, listed as Callithrix sp.) MAFEDVAVYFSEEEWGLLDTAQRALYRHVMLENFTLVTSLGLSTSRPLVVIQLERGEDPWVPSVKDMTLARNAYGRRTTGS
property-label: Log2 (fold change)
observed-result: 2.8406
--
molecule: DOMAIN_4516 (protein, listed as Callithrix sp.) MAAIPLKAQCQETVTFEDVAVHFTKTEWTGLSPAQRALYRSVMLENYGNLTAMGYLVPKPALISLLEGGDMAWGLEAQDDP
property-label: Log2 (fold change)
observed-result: 2.7603
--
molecule: DOMAIN_13331 (protein, listed as Macaca fascicularis) FQGSISFKDVTVGFTQEEWQHLDPSQRALYRDVMLENYSNLVSVGYCVHKPEVISRLEQGEEPWRLEEEFPSQSFPVWTAD
property-label: Log2 (fold change)
observed-result: 3.5154
--
molecule: DOMAIN_9960 (protein, listed as Octodon degus) AVTMEDVTVTFTNEEWALLNPAQKRLYGDVMWETFRTISAIGRTWDSQQMEEEYKNYLRNLSNEEVAKCCRYTTFNQHENI
property-label: Log2 (fold change)
observed-result: 3.4751
--
molecule: DOMAIN_4120 (protein, listed as Macaca mulatta) MAFEDVAVYFSQEEWGLLDTAQRALYRHVMLENFTLVTSLGLSTSRPHVVIQLERGEEPWVPSGKDMTLARNTYRRLNAGS
property-label: Log2 (fold change)
observed-result: 3.3237

Where do the numbers come from? From patent US12551573B2.
